Origin of values: ChEMBL document CHEMBL3286146

For Tumor necrosis factor (Homo sapiens, UniProt P01375), measured Kd is reported for the entries below.
One number for each entry, in nM.

{"Molecule": "CC(CC(=O)C[C@@H](C)[C@H]1CC(=O)[C@@]2(C)C3=C(C(=O)C[C@]12C)[C@@]1(C)CC[C@H](O)C(C)(C)[C@@H]1C[C@@H]3O)C(=O)O (some centres undefined)", "Reported endpoint": "Kd", "Measured value": 8.81}

Give Kd for all molecules that follow.
1. CC(CC(=O)C[C@@H](C)[C@H]1CC(=O)[C@@]2(C)C3=C(C(=O)C[C@]12C)[C@@]1(C)CCC(=O)C(C)(C)[C@@H]1C[C@@H]3O)C(=O)O (some centres undefined)
2. C[C@H](CC(=O)C[C@@H](C)[C@H]1C[C@H](O)[C@@]2(C)C3=C(C(=O)C[C@]12C)[C@@]1(C)CCC(=O)C(C)(C)[C@@H]1C[C@@H]3O)C(=O)O
3. O=c1cc(-c2ccc(O)c(O)c2)oc2cc(O[C@@H]3O[C@H](CO)[C@@H](O)[C@H](O)[C@H]3O)cc(O)c12

18.6
8.53
790
